- tested target: human GLP-1 receptor (human) (UniProt P43220)
- Sequence (P43220 24-463): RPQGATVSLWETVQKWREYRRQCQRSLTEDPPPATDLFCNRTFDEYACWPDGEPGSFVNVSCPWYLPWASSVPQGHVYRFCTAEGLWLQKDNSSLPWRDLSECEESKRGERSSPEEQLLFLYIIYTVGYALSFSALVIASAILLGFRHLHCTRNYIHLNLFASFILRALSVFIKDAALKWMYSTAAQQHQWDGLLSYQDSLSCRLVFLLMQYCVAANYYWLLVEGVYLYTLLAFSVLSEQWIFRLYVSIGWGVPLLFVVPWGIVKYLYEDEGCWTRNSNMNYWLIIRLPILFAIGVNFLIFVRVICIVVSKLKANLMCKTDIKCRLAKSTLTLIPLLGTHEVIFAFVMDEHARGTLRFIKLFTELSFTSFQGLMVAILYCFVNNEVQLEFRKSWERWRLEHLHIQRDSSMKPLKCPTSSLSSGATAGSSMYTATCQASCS
No end group written: not given here.
EC50 GLP1R (nM); cAMP assay on CHO-JumpIn cells with human GLP1R values for the binders below.
The answer is to be given in nM; state only the numeric part.

Incoming: Which EC50 GLP1R (nM); cAMP assay on CHO-JumpIn cells with human GLP1R reading was recorded for the binder INHEQWAFTSDYSKYLDSRRAQDFVQWLMNT-NH2 [Peptide 14] ?
Outgoing: 16.7

Incoming: Which EC50 GLP1R (nM); cAMP assay on CHO-JumpIn cells with human GLP1R reading was recorded for the binder HSQGTFTSDYRKYLDERAAWDFVQWLMNT-NH2 [Peptide 3] ?
Outgoing: 0.427

Incoming: Which EC50 GLP1R (nM); cAMP assay on CHO-JumpIn cells with human GLP1R reading was recorded for the binder HSQGTFTSDYSKYLDSRRAQDFVMTSMNT-NH2 [Peptide 26] ?
Outgoing: 8.96
